Experiment: qHTS assay to identify small molecule antagonists of the glucocorticoid receptor (GR) signaling pathway - cell viability counter screen (AID 720693); further: nearly all actives have a fitted effect of over 55% in size
Conditions: GR-bla HeLa viability, CellTiter-Glo luminescence, 18 h, with 5 nM dexamethasone present; series mostly up to 58.5 µM
Results filed as inconclusive are left out. Calls of active or inactive are those of the source. The call rests on the fitted dose curve; in most records, active means well fitted cell-killing curve with a large enough effect in the repeat runs; inconclusive means weak or mixed curves, or effect the other way; inactive means no such curve, though single readings can be large or run the other way.
Outcomes: label 1 for active, label 0 for inactive

molecule | className
CCCCCCCC/C=C\CCCCCCCC(=O)N(CCO)CCO | label 1
O=P(O)(O)C(O)(Cn1ccnc1)P(=O)(O)O | label 0
CCCCC[C@H](O)/C=C/[C@@H]1[C@@H](C/C=C\CCCC(=O)O)[C@@H](O)C[C@H]1O | label 0
Nc1nc(/C(=C/CC(=O)O)C(=O)N[C@@H]2C(=O)N3C(C(=O)O)=CCS[C@H]23)cs1 | label 0
CN=C(N)NCCC[C@H](N)C(=O)O | label 0
O=c1[nH]c(=O)n([C@H]2C[C@H](O)[C@@H](CO)O2)cc1/C=C/Br | label 0
CCOc1ccc(NC(=S)Nc2ccc(OCC)cc2)cc1 | label 0
O=C1OC(=O)c2cc(-c3ccc4c(c3)C(=O)OC4=O)ccc21 | label 0
CCCCCCCCCCCCCCCCCCOCC(COP(=O)([O-])OCC[N+](C)(C)C)OC (stereo unspecified) | label 0
CC12CCC(C[N+](C)(CCC[N+](C)(C)C)C1)C2(C)C (stereo unspecified) | label 0
C=C1[C@@H]2CC[C@@H](C2)C1(C)C | label 0

---

Assay: qHTS assay to identify small molecule antagonists of the thyroid receptor (TR) signaling pathway (AID 743065); further: nearly all actives have a fitted effect of over 55% in size
Conditions: GH3.TRE-Luc, T3-stimulated luciferase inhibition, 23.5 h; series mostly up to 70.3 µM
Inconclusive results are not listed. Active and inactive are the calls of the source. Calls come from the whole dose curve; as a rule, active = well fitted inhibition curve with a large enough effect in the repeat runs; inconclusive = weak or mixed curves; inactive = no such curve, though single readings can be large or run the other way.
Outcomes: active, inactive

compound | className
CCCCCCCC1CCC(=O)O1 (configuration not stated) | inactive
c1ccc2c(c1)OCC(CN1CCCCC1)O2 (configuration not stated) | inactive
CC(C)=CCC/C(C)=C/CC/C(C)=C/CC/C(C)=C/CC1=C(C)C(=O)c2ccccc2C1=O | inactive
CNCC(=O)N[C@@H](CCCN=C(N)N)C(=O)N[C@H](C(=O)N[C@@H](Cc1ccc(O)cc1)C(=O)N[C@H](C(=O)N[C@@H](Cc1cnc[nH]1)C(=O)N1CCC[C@H]1C(=O)N[C@@H](C)C(=O)O)C(C)C)C(C)C | inactive
CCC(=O)OC(OP(=O)(CCCCc1ccccc1)CC(=O)N1C[C@H](C2CCCCC2)C[C@H]1C(=O)O)C(C)C (some centres not stated) | inactive
CSCC[C@H](NC(=O)[C@H](Cc1ccc(OS(=O)(=O)O)cc1)NC(=O)[C@@H](N)CC(=O)O)C(=O)NCC(=O)N[C@@H](Cc1c[nH]c2ccccc12)C(=O)N[C@@H](CCSC)C(=O)N[C@@H](CC(=O)O)C(=O)N[C@@H](Cc1ccccc1)C(N)=O | inactive
CN[C@H](CC(C)C)C(=O)N[C@H]1C(=O)N[C@@H](CC(N)=O)C(=O)N[C@H]2C(=O)N[C@H]3C(=O)N[C@H](C(=O)N[C@@H](C(=O)O)c4cc(O)cc(O)c4-c4cc3ccc4O)[C@H](O)c3ccc(c(Cl)c3)Oc3cc2cc(c3O[C@@H]2O[C@H](CO)[C@@H](O)[C@H](O)[C@H]2O[C@H]2C[C@](C)(N)C(O)[C@H](C)O2)Oc2ccc(cc2Cl)[C@H]1O (some centres not stated) | inactive
CC(=O)N[C@@H](C=O)[C@H](O)[C@H](O)[C@@H](O)CO | inactive
NC(=O)C1c2ccccc2CCc2ccccc21 | inactive
CCCCCCCCCCCCCCCCC(C(=O)O)C(O)(CC(=O)O)C(=O)O (configuration not stated) | active
NCC1CCC(C(=O)O)CC1 (configuration not stated) | inactive
CC1CCCCN1CCCOC(=O)c1ccccc1 (configuration not stated) | inactive
